Study System: human TLR9 (Homo sapiens)
Sequence (Q9NR96 26-1032): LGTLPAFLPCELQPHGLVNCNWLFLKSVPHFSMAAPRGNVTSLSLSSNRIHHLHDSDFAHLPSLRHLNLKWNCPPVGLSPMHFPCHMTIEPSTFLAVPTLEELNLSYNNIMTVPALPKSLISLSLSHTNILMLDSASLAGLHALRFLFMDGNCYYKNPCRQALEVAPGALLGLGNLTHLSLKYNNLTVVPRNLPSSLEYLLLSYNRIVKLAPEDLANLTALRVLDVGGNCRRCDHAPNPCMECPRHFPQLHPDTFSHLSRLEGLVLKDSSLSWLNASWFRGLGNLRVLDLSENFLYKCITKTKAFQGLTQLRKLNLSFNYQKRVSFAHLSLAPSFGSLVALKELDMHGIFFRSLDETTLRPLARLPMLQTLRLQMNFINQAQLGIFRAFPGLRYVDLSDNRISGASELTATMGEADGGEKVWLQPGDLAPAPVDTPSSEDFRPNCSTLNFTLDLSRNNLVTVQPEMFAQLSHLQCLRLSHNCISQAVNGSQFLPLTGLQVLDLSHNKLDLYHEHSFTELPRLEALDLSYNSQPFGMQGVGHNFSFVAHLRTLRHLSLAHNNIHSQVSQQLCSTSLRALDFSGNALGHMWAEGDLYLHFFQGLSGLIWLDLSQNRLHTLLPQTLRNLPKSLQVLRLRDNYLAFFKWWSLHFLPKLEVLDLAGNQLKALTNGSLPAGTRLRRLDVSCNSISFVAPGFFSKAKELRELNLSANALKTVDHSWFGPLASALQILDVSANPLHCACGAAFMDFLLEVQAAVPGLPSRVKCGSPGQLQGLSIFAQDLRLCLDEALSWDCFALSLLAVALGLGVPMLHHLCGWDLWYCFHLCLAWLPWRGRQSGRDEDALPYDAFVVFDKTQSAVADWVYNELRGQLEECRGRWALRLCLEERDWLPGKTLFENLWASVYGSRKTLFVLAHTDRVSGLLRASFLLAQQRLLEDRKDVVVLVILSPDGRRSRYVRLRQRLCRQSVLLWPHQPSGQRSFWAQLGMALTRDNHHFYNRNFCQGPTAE
Test Protocol: TLR9 inhibition reporter assay (HEK-Blue SEAP)
Recorded Conditions: HEK-Blue cells overexpressing human TLR9, ODN2006 5 nM, 22 hour incubation
Property: IC50 (µM)

Answered examples (5):
CCc1cc2c(cc1-c1cc(OC)c3ncnn3c1)[nH]c(=O)n2[C@@H]1CCCN(CC2CCC2)C1 [Example 181]    6.77
COc1cc(-c2cc3[nH]c(=O)n([C@H]4CC[C@@H](NC5CCOCC5)CC4)c3cc2C)cn2ncnc12 [Example 49]    7.43
COc1cc(-c2cc3[nH]c(=O)n([C@@H]4CCCN(C5CCC5)C4)c3cc2C)cn2ncnc12 [Example 69]    19.3
COc1cc(-c2cc3[nH]c(=O)n(C4CCC(N5CC6(CCOCC6)C5)CC4)c3cc2C(C)C)cn2ncnc12 (single isomer, unassigned) [Example 235]    11.2
COc1cc(-c2cc3[nH]c(=O)n(C4CCC(N5CCC6(CC5)COC6)CC4)c3cc2C(C)C)cn2ncnc12 (centres unmarked) [Example 239]    13

(P) COc1cc(-c2cc3[nH]c(=O)n([C@H]4CC[C@@H](N)CC4)c3cc2C)cn2ncnc12 [1 EG]
(Q) COc1cc(-c2cc3[nH]c(=O)n(C4CCN(C)CC4)c3cc2C)cn2ncnc12 [Example 1]
(R) COc1cc(-c2cc3[nH]c(=O)n([C@@H]4CCCN(CC5CCOCC5)C4)c3cc2C)cn2ncnc12 [Example 57]
Output the entries ranked by IC50 from maximum down to minimum. Respond with an ordered listing of the labels, as requested.
R, P, Q

All figures here come from patent US12187723B2.
